System: biotinyl-Met-oxazolone
experimentSummary: self-aminoacylation, catalytic enhancement (BMO) (fold over background); higher = more active; k-Seq, kA / k0A0; sequences stand for … in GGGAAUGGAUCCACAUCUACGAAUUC…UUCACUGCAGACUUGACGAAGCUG
Fewer inactive variants are shown than the library holds.
sequences and their reported self-aminoacylation
Number, no unit, nothing else.

Example entries begin here.
{"recordSequence": "CCAGACUUCAAGCAAUCGGCC [Fam1B.1 aminoacylation ribozyme variant]", "self-aminoacylation": 4.19}
{"recordSequence": "UUGUUUGCUAAUAGUCGCAAG [Fam3.1 aminoacylation ribozyme variant]", "self-aminoacylation": 1.33}
{"recordSequence": "CCACACUUCAAGCAAGCUGUC [Fam1B.1 aminoacylation ribozyme variant]", "self-aminoacylation": 0.451}

Consider now this further sequence.
Lab book: self-aminoacylation of UCUCACCUAGGUCAUCGGGUG [Fam2.2 aminoacylation ribozyme variant] noted as 3.73
